- Measurement notes: cell viability in Huh7 cells, primary screen, cytotoxicity control for HCV replication inhibitor project, CellTiter-Glo luminescence, basal, 48 h (AID 1143);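 note: Huh7 hepatoma cells carrying a hepatitis C replication reporter with no stimulus; test concentration not given here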
- Measurement setup: Huh7 HCV replicon, higher = more signal, called active from +8 up or from −8 down
Would you mind labelling by z-score? At or over -0.2 is Met, under is Not met.

Molecule	Label value
COCCOC(=O)N1C(=O)[C@@]2(c3cc(C#CC4(O)CCCCCC4)ccc31)[C@H](C(=O)N1CCN(c3ncccn3)CC1)[C@H]1C(=O)O[C@H](c3ccccc3)[C@H](c3ccccc3)N1[C@@H]2c1ccc(OCCO)cc1	Not met
COCCCNC(=O)[C@]1(Cc2ccccc2)N=C(c2ccc(OCCCO)cc2)O[C@@H]1c1ccccc1	Not met
C[C@H]1Cc2c(-c3ccccc3)nc3c(c2CO1)CN(CCOc1ccccc1)CC3	Not met
C[C@@H]1CC[C@H]2C(=O)O[C@H](COc3ccc(C(C)(C)C)cc3)CN2[C@H]1c1ccc(Br)cc1	Not met
CC(C)N1CC=CC23O[C@@H]4C=CCCOC(=O)C4[C@H]2C(=O)N(CCCCCCO)[C@@H]3C1=O (stereo partly drawn)	Met
C#CCCCON=C1C[C@@H](O)[C@@H](O)[C@@H]2[C@@H]3C(=O)N([C@@H](C)c4ccccc4)C(=O)[C@@H]3CC[C@H]12	Not met
CO[C@@H]1COC(=O)CC=C[C@@H](C)[C@H](OC)COC(=O)[C@H](COCc2ccccc2)NC(=O)CC=C[C@H]1C	Met
COc1cccc([C@H]2Oc3ccc(OC)cc3C(=NO[C@H](C)c3cn([C@@H]4COC[C@H]4O)nn3)[C@@H]2O)c1	Not met
